The entries below are paired with their reported AC50 for growth inhibition (log10 M).
# Tested on: SB.msgc-1
# Protocol Description: AC50 for growth inhibition (viability) (log10 M); higher = less potent
# Assay Setup: SB.msgc-1 (sporadic gastric cancer)

>  <Molecule>
CC(=O)O[C@@]1(CC[C@H]2[C@@H]3\C=C(Cl)/C4=C/C(=O)[C@@H]5C[C@@H]5[C@]4(C)[C@H]3CC[C@]12C)C(C)=O [Cyproterone acetate]

>  <AC50 for growth inhibition (log10 M)>
-4.68

$$$$
>  <Molecule>
COC1=CC=C(C=C1O)C/2=C/C(=O)C3=C(O2)C=C(O[C@@H]4O[C@H](CO[C@@H]5O[C@@H](C)[C@H](O)[C@@H](O)[C@H]5O)[C@@H](O)[C@H](O)[C@H]4O)C=C3O

>  <AC50 for growth inhibition (log10 M)>
-5.58

$$$$
>  <Molecule>
CCC1=C[C@@H]2CN(C1)Cc1c([nH]c3ccccc13)[C@@](C(=O)OC)(c1cc3c(cc1OC)N(C)[C@H]1[C@@](O)(C(=O)OC)[C@H](OC(C)=O)[C@]4(CC)C=CCN5CC[C@]31[C@@H]54)C2

>  <AC50 for growth inhibition (log10 M)>
-7.08

$$$$
